# Test system: Saccharomyces cerevisiae
# assay notes: protein stability index of tFT-peptide fusion (C-terminal peptide) (PSI (0-1 scale)); higher = more stable (slower turnover)
# assay setup: genetic background: wild type; temperature: 30 C
Give protein stability index for every item shown.
Numbers only.

ERLIQQGYLQKI [PSF1 C-terminal 12 aa] = 0.683

Answer for every listed entry: what is its protein stability index? The entries follow.
1. FFTKLFKKKSSR [MSC3 C-terminal 12 aa]
2. EFTDEWFKEHSS [STH1 C-terminal 12 aa]
3. FFMIMVMVINFI [FIG2 C-terminal 12 aa]

0.683
0.719
0.199

Each sequence below has a reported value. Please supply its protein stability index.
1. WVDAFGIIYGAL [YIL108W C-terminal 12 aa]
2. SVFCRNYPSFLL [YMR086C-A C-terminal 12 aa]
3. EKVRNEGFIKNP [GPM2 C-terminal 12 aa]
4. LSSVKVRQLRNM [RBH2 C-terminal 12 aa]
5. FMSNTLFNSSLV [YPR003C C-terminal 12 aa]
6. LKRVVTKAMSSR [SSB1 C-terminal 12 aa]

1. 0.723
2. 0.7
3. 0.702
4. 0.205
5. 0.693
6. 0.686

Please state protein stability index for every sequence in the list that follows.
1. GDENFVILEFEC [OAZ1 C-terminal 12 aa]
2. KHKNILFFNHNT [YJR162C C-terminal 12 aa]
3. PAKVGIVKGEEN [MGE1 C-terminal 12 aa]

0.732
0.199
0.709

Batch of 4 sequences: report protein stability index for each.
1. NGEIMTCWEWKE [HEH2 C-terminal 12 aa]
2. NLELGGLNMDFL [PGD1 C-terminal 12 aa]
3. DILGFKIAPRSA [YGR210C C-terminal 12 aa]
4. FCMGVAAFVTTA [UTP21 C-terminal 12 aa]

1. 0.686
2. 0.708
3. 0.707
4. 0.497

Hey, can you go through the list below and give me protein stability index for every item?
1. DEEEEIEPEVKA [SBA1 C-terminal 12 aa]
2. SLIKQVGVKLDR [JHD2 C-terminal 12 aa]
3. LYFLVKSFLSIV [HMX1 C-terminal 12 aa]
4. FSALMGESDDEE [TIF4631 C-terminal 12 aa]

1: 0.685; 2: 0.67; 3: 0.282; 4: 0.678

Source listed as the supplement of paper PMC10724198.
